System: TO-3-N3-2 (biotin conjugate)
assayText: pull-down binding Z-score (relative to library population); higher = stronger binding
measurementSetup: RNA library: Library-2
If the reported pull-down binding Z-score equals or exceeds -0.09, assign Condition met. If not, assign Condition not met.

>>> classassignment("UGACUACUUCGAAAAUGGGAAGUAGACA [hsa-mir-7849]")
"Condition not met"
>>> classassignment("UCCAGGGCUCCUGACACCUGGA [hsa-mir-6861]")
"Condition not met"
>>> classassignment("GGCUGUGAGCUCUAGCAAUGCCC [hsa-mir-146b]")
"Condition met"
>>> classassignment("CAGCAAGAACUG [DMSMaPseq_invitro_SARS-CoV-2_Motif_202]")
"Condition not met"
>>> classassignment("GCCACUUGCGAAUUUUGUGGC")
"Condition not met"
>>> classassignment("AGGGUGGAGCCCACUGUGGCUCCUGACUCAGCCCU [hsa-mir-6893]")
"Condition met"
>>> classassignment("UCUGACAGUCCAUGUGAGUCUCAUGGAAAACAAGUAGUGUCAGA [SHAPE_invivo_SARS-CoV-2_Motif_364]")
"Condition met"
>>> classassignment("AUUGACAUUAAUGGCAAUCUUCAUCCAGAUUCUGCCACUCUUGUUAGU [DMSMaPseq_invitro_SARS-CoV-2_Motif_73]")
"Condition not met"

---

System: TO-3-N3 (biotin conjugate)
assayText: pull-down binding Z-score (relative to library population); higher = stronger binding
measurementSetup: RNA library: Library-2
Entries and their measured pull-down binding Z-score follow.
assayMetric: pull-down binding Z-score

>>> measuredvalue("CCAAAUUUCAUGCG [hsa-mir-4454]")
-0.0597
>>> measuredvalue("UUUCUGUUGUCUAAAAGAAGAGAAA [hsa-mir-518a-2]")
0.159
>>> measuredvalue("GGUUCCCACGCCGCGGCAACC [hsa-mir-6776]")
0.0159
>>> measuredvalue("CCUUGUGAAUGUCGGGCAAUGG [hsa-mir-4701]")
-0.0355
>>> measuredvalue("AUGGGAGCCCAGAGACGUCCUAU [hsa-mir-8074]")
-0.304
>>> measuredvalue("GCUGGGCUGAGCUAACCAGGGCUGGGCUGAGC [hsa-mir-4537]")
0.138
>>> measuredvalue("AUGCUAAGUCCAUGGGCAAACAU [hsa-mir-5704]")
-0.258
>>> measuredvalue("UGUGUGCUGAGAAAAUUCACACA [hsa-mir-5580]")
0.00215
>>> measuredvalue("UGAUGCAGCCAUGCAACGUAAGUUGGAAAAGAUGGCUGAUCA")
-1.03
>>> measuredvalue("GGGUGGGCGGGGGCGGCCGGUGGGAACCCCGCCCCGCCCCGCGCCCGCACUCACCC [hsa-mir-7108]")
6.31
>>> measuredvalue("UGGAGGAAUACAAAUCCA [SHAPE_invitro_SARS-CoV-2_Motif_386]")
0.291

---

Test system: TO-N3 (biotin conjugate)
assayText: pull-down binding Z-score (relative to library population); higher = stronger binding
measurementSetup: RNA library: Library-2
Entries and their measured pull-down binding Z-score follow.
assayMetric: pull-down binding Z-score

>>> measuredvalue("UUUGCCUGUAAAAGUAAUGGCAAA [hsa-mir-548d-1]")
-0.702
>>> measuredvalue("AGGGACCCCCGGAGUCUGUCACGGUCUCA [hsa-mir-6784]")
0.353
>>> measuredvalue("UAAUGAUUGGAGUCAUUUUCAGAGCAUUA [hsa-mir-3202-1]")
-0.407
>>> measuredvalue("CGCUGCUGGCUGCCUUCCAGCG [hsa-mir-4533]")
0.079
>>> measuredvalue("UGCUAACUAAGGGCA")
0.627
>>> measuredvalue("GGAGCUCAGCACCUGCCUGCCACCCACGCAGACCAGCCCCUGCUCUGUUCCCACAG [hsa-mir-4648]")
1.56
>>> measuredvalue("ACCAACCACCACAAACCUCUAUCACCUCAGCUGUUUUGCAGAGUGGUUUUAGAAAAAUGGCAUUCCCAUCUGGU")
0.386
>>> measuredvalue("AAAUAGUUUCUAUCAAAAUAGUUU [hsa-mir-3668]")
-0.931
>>> measuredvalue("AUCUGAUGUUGAAUACUCUUUAAGU [hsa-mir-1245a]")
-0.322
>>> measuredvalue("UAUAUGCCUUAUUUCUUUACUUUAUUGCUACAAUUGUGUACUUUUACUAGAAGUACAAAUUCUAGAAUUAAAGCAUCUA [DMSMaPseq_invitro_SARS-CoV-2_Motif_128]")
-0.348
>>> measuredvalue("AGGUUGGACAGCUGGUGCUGCAGCUU [SHAPE_invivo_SARS-CoV-2_Motif_420]")
0.754
>>> measuredvalue("GGCGAUAGUUGUAAUAACUAUAUGCU")
-1.31
>>> measuredvalue("CAGGGAACUUUAAAACC [hsa-mir-4324]")
0.483
>>> measuredvalue("GGACUUGCGGUUCA [hsa-mir-8057]")
-0.0278
>>> measuredvalue("GAGAGUGUUCAGACAUUCUU [SHAPE_invivo_SARS-CoV-2_Motif_44]")
0.718
>>> measuredvalue("CUUAGGGACAACCUUGAACCUGGG [IAV_invivo_PA_3_Motif_29+IAV_invivo_PA_3_Motif_29]")
-0.557
>>> measuredvalue("UGUCAUUACUUUUAACUGUA [hsa-mir-548h-5]")
1.07
>>> measuredvalue("GGCACUGGGUAUCGUAGGUGCC [hsa-mir-3116-1]")
0.377
>>> measuredvalue("AUUUGCCAUCACCUUUACCUUUAAUGGCAAAA [hsa-mir-548av]")
-0.188
>>> measuredvalue("UCAUCAGGAGAUGCCACAACUGCUUAUGCUAAUAGUGUUUUUAACAUUUGUCAAGCUGUCACGGCCAAUGUUAAUGCACUUUUAUCUACUGAUGG [DMSMaPseq_invitro_SARS-CoV-2_Multi_45_ComplexLevel_1]")
-0.561
>>> measuredvalue("UGGGUGGAUCCUCUAUUUCCUUACGUGGGCCACUGG [hsa-mir-432]")
0.729
>>> measuredvalue("CACUGUACAGUCUAAAAUGUCAGAUGUAAAGUG [DMSMaPseq_invitro_SARS-CoV-2_Motif_208]")
-0.414
>>> measuredvalue("AAAUAAAAGAUGGAGUCGUUUGACGUCUUUUAACACCCUUU [hsa-mir-8055]")
-0.706
>>> measuredvalue("UUCUGUGGUUUGAAAGGAA [hsa-mir-1323]")
0.444
>>> measuredvalue("UCCAGGAUCUGGGUUUUGAGGUCUUGG [hsa-mir-4309]")
0.673
>>> measuredvalue("UAUAAUAUGAGAGUUAUA")
-0.233
>>> measuredvalue("AUUGUUACAUAAACCUAUUGUUUGGCAUGUUAACAAU")
-0.895
>>> measuredvalue("AGUCCGUGCAUCCGCCCUUCGAUGCUUGGGUU [hsa-mir-3182]")
-0.278
>>> measuredvalue("GCCAGUCAGCGCUCACAUUAAGGCUGAC [hsa-mir-2277]")
-0.222
>>> measuredvalue("AUGGGGCAGCUGGGAUGGUCCAAAAGGGUGGCCUCA [hsa-mir-1226]")
1.05
>>> measuredvalue("GCAUACAGUCGCUACAGGAUUGGCAACUAUAAAUUAAACACAGACCAUUCCAGUAGCAGUGACAAUAUUGC [SHAPE_invivo_SARS-CoV-2_Motif_513]")
0.116
>>> measuredvalue("AAGGGAGGGGCGGGUCGGGAA [G4_2A2_NRAS]")
7.02
>>> measuredvalue("CUGCAGAUGCAG [IAV_invivo_HA_4_Motif_2+IAV_invivo_HA_4_Motif_2]")
-0.419
>>> measuredvalue("UUUUCCUGAGAAUAAGAGAAGGAAGG [hsa-mir-4455]")
0.0683
>>> measuredvalue("CGGUUGCUUGGUCAGCAAGUGCAUGUCAUGAUGGCAUGGGCUGGCUAACAAUCG [IAV_invivo_NA_6_Motif_7+IAV_invivo_NA_6_Motif_7]")
-0.939
>>> measuredvalue("CCCAUAUAAUAUUAGGGG [hsa-mir-4483]")
-0.783
>>> measuredvalue("AAGGUAAAACCAACAGUGGUUGUUAAUGCAGCCAAUGUUUACCUU [DMSMaPseq_invitro_SARS-CoV-2_Motif_60]")
-0.792

# credit: the supplement of paper PMC11865577
